I'd appreciate it if you could supply kon values for the items below.
- target under test: T1, AAV8
- T1 construct: also called adeno-associated virus serotype 8
- experiment description: SPR, AAV on CM5 chip;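 further: surface plasmon resonance with AAV amine-coupled to the chip as ligand, nanobodies injected as analyte over a concentration series, rate constants and affinity fitted from binding curves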
Numbers only, in M⁻¹ s⁻¹.

>>> measured_value("A4-038 (VHH) VHH: VQLQESGGGLVQPGGSLRLSCAASGSHFSINTMGWYRQAPGKQRELVATVTRGGSTNYANSVKGRFTISRDNAKNTVYLQMNSLRPEDTAVYYCHLDEVRQSSWTTSNLWGQGTQVTVSS")
7190

Go through the items and report each one's kon.
1. A4-018 (VHH) VHH: VQLQESGGGLVQAGGSLRLSCAASGSRFSINTMGWYRQAPGKQREFVATVTRGGNTNYAESVKGRFTISRDNAKNTVYLQMNSLRPEDTAVYYCHVDEVRDSSWTTSNIWGQGTQVTVSS
2. A4-032 (VHH) VHH: VQLQESGGGLVQPGGSLRLSCVASGSSFSINTMGWYRQAPGKQRELVATVTRDGSTNYANSVKGRFTISRDNAKNTVYLQMNSLRPEDTAVYYCHVDEVRQSSWTTSNLWGQGTQVTVSS

1: 112000; 2: 132000
